target: human EHMT2 913-1193 (Homo sapiens); construct: recombinant purified human EHMT2 913-1193, Viva; purchased Viva; test: EHMT2 enzyme assay on histone peptide substrate (EHMT2 PEP); assay type: biochemical; settings: Table II; read-out: EHMT2 PEP (IC50 μM)
Sequence (Q96KQ7 913-1193): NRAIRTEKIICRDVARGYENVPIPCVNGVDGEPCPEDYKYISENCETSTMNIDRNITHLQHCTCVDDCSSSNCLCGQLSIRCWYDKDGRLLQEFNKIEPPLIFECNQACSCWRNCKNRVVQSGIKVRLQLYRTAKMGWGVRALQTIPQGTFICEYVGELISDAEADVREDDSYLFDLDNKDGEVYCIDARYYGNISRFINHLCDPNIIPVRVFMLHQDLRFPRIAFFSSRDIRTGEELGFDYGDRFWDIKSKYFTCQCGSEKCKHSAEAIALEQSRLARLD
Quantity Measured: IC50

Consider the worked cases shown below.
| Compound | IC50 |
| --- | --- |
| COc1ccc(Nc2nccc(NCC3CCN(C(C)=O)CC3)n2)cc1OCCCN1CCCC1=O [Compound 119] | > 10 µM |
| COc1ccc(N(C)c2nccc(NCC3CCN(C(C)=O)CC3)n2)cc1OCCCN1CCCC1 [Compound 158] | > 10 µM |

Briefly, IC50 measured for COc1ccc(Nc2cccn3ncnc23)cc1OCCCN1CCCC1 [Compound 201] : > 10 µM

Briefly, IC50 measured for COc1ccc(Nc2nccc(NCCC3CCOCC3)n2)cc1OCCCN1CCCC1 [Compound 178] : 0.1 to 1 µM

Briefly, IC50 measured for COc1ccc(Nc2nccc(N(C)Cc3cccnc3)n2)cc1OCCCN1CCCC1 [Compound 135] : 1 to 10 µM

Briefly, IC50 measured for COc1ccc(Nc2nccc3[nH]ncc23)cc1OCCCN1CCCC1 [Compound 249] : > 10 µM

Briefly, IC50 measured for COc1cnc(Nc2ccnc(CNC3CCOCC3)c2)cc1OCCCN1CCCC1 [Compound 12] : 1 to 10 µM

Briefly, IC50 measured for CCCCNc1ncc(C)c(NCC2CCNCC2)n1 [Compound 91] : > 10 µM

Briefly, IC50 measured for COc1ccc(Nc2cc(NCC3CCN(C(C)=O)CC3)cnn2)cc1OCCCN1CCCC1 [Compound 185] : 1 to 10 µM

----------
Each entry below carries its reported IC50.
molecular target: EHMT2 (Homo sapiens); construct: host or cells: MDA-MB-231; experiment: MDA-MB-231 H3K9me2 in-cell Western assay (EHMT2 ICW); assay type: cell-based; settings: Table II; MDA-MB-231 H3K9me2 in-cell Western; read-out: EHMT2 ICW (IC50 μM)
Sequence (Q96KQ7 whole entry): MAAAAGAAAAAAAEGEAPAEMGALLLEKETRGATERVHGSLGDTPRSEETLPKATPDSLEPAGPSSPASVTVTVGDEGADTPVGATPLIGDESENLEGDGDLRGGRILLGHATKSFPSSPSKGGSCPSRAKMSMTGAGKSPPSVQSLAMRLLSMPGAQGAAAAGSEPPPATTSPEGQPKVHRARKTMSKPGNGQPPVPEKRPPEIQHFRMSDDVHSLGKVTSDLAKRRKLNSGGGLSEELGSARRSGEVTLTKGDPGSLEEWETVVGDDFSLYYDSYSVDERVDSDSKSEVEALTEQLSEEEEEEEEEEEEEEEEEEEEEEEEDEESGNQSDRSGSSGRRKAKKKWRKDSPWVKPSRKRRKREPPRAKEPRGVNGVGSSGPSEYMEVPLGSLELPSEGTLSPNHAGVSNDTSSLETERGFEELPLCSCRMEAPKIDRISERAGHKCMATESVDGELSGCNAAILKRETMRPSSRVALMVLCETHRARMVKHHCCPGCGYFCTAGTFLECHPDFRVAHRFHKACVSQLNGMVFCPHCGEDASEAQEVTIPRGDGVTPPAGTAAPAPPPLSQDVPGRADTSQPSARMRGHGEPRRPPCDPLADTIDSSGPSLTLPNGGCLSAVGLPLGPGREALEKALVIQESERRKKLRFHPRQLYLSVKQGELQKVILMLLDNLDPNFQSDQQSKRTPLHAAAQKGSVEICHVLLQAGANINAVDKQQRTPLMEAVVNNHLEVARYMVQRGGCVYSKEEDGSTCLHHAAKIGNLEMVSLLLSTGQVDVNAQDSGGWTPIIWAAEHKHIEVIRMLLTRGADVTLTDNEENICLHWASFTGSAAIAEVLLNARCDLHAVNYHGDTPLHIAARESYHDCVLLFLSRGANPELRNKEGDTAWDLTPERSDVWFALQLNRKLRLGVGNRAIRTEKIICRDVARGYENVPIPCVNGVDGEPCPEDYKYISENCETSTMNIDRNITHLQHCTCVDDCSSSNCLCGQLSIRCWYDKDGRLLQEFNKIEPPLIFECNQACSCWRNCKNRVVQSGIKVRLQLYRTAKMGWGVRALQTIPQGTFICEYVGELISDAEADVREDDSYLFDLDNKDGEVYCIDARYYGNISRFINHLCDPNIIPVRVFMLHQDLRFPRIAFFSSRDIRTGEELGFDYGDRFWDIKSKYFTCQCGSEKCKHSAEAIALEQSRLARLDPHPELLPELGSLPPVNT

Consider the worked cases shown below.
| Molecule | Test System | IC50 |
| --- | --- | --- |
| COc1ccc(Nc2nccc(NCC3CCN(C(C)=O)CC3)n2)cc1OCC1CCN(C)C1 (stereo not drawn) | EHMT2 (Homo sapiens) | 1 to 10 µM |
| COc1ccc(Nc2nccc(N3CCN(c4ccccn4)CC3)n2)cc1OCCCN1CCCC1 | EHMT2 (Homo sapiens) | 1 to 10 µM |
| COc1ccc(Nc2nccc(N3CCC(OC)CC3)n2)cc1OCCCN1CCCC1 | EHMT2 (Homo sapiens) | > 10 µM |

Briefly, IC50 measured for COc1ccc(Nc2cc(CNC3CCOCC3)n(C)n2)cc1OCCCN1CCCC1 : > 10 µM

Briefly, IC50 measured for COc1ccc(Nc2nccc(NCC3CCNCC3)n2)cc1OCCCN1CCCC1 : > 10 µM

Briefly, IC50 measured for CNc1ccnc(Nc2ccc(OC)c(OCCN3CCOCC3)c2)n1 : > 10 µM

Briefly, IC50 measured for COc1ccc(Nc2nccc(NCc3ccccn3)n2)cc1OCCCN1CCCC1 : 0.1 to 1 µM

Briefly, IC50 measured for COc1ccc(Nc2nccc(N(C)C)n2)cc1OCCCN1CCCC1 : 1 to 10 µM

----------
molecular target: EHMT1 (Homo sapiens, UniProt Q9H9B1); experiment: EHMT1 enzyme assay on peptide substrate (EHMT1 PEP); format: biochemical; conditions: Table VII; read-out: EHMT1 PEP IC50
Sequence (Q9H9B1 whole entry, species assumed): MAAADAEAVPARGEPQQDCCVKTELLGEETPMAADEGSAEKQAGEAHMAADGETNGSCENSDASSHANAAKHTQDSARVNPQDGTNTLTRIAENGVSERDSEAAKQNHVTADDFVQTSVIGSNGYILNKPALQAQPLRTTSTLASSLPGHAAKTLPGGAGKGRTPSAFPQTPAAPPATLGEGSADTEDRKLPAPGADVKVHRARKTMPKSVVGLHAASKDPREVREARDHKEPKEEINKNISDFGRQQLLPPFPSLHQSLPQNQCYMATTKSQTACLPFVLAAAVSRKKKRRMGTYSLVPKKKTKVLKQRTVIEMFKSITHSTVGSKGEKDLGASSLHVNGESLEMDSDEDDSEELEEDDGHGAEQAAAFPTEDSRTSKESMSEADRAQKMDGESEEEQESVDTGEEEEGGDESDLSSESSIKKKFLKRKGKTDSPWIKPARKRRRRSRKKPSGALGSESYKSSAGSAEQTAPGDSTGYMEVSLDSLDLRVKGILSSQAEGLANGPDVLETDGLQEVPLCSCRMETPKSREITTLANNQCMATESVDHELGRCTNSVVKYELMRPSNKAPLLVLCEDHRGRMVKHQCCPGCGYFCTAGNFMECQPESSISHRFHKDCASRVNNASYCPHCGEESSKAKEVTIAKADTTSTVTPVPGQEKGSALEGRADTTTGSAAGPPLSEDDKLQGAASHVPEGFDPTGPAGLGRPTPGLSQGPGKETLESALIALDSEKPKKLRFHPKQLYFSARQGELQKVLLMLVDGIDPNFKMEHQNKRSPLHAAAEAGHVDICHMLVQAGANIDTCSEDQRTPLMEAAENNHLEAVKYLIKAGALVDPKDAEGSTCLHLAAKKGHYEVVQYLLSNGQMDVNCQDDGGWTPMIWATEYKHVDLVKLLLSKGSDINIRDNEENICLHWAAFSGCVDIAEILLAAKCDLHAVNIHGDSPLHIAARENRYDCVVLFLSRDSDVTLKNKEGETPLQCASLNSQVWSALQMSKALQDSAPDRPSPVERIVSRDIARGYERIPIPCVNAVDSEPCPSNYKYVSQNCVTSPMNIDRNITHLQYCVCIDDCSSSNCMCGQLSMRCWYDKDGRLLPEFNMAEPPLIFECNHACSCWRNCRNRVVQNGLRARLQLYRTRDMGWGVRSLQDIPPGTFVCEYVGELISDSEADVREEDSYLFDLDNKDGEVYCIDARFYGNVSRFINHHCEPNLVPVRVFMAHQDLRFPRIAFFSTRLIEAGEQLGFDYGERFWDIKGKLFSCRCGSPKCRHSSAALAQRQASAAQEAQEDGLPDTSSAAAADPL
Quantity Measured: IC50

| Compound | Test System | IC50 |
| --- | --- | --- |
| CCN1CCO[C@@H](COc2cc(Nc3nccc(NC)n3)ccc2OC)C1 | EHMT1 (Homo sapiens, UniProt Q9H9B1) | > 10 µM |
| CNCCNCc1cc(Nc2nccc(NC)n2)ccc1OC | EHMT1 (Homo sapiens, UniProt Q9H9B1) | 0.1 to 1 µM |
| CNc1cc(C)nc(Nc2cnc(OC)c(OC[C@H](O)CN3CCC3)c2)n1 | EHMT1 (Homo sapiens, UniProt Q9H9B1) | < 0.1 µM |
| CCc1ccccc1NC(=O)Nc1ccc(Nc2nc(C)cc(N3CCCC3)n2)cc1 | EHMT1 (Homo sapiens, UniProt Q9H9B1) | 1 to 10 µM |

Briefly, IC50 measured for CNc1ccnc(Nc2cnc(OC)c(OC[C@@H]3CCN(C4CC4)C3)c2)n1 : < 0.1 µM

Briefly, IC50 measured for CCN1CCO[C@H](COc2cc(Nc3nccc(NC)n3)ccc2OC)C1 : > 10 µM

Briefly, IC50 measured for CNc1ccnc(Nc2cnc(OC)c(ONCCN3CCCC3)c2)n1 : < 0.1 µM

Briefly, IC50 measured for CNC[C@@H](C)NCc1cc(Nc2nc(C)cc(NC)n2)ccc1OC : 1 to 10 µM

Briefly, IC50 measured for CNc1cc(C)nc(Nc2ccc(OC)c(CNCCN3CCC3)c2)n1 : < 0.1 µM

Briefly, IC50 measured for CNc1ccnc(Nc2ccc(OC)c(OC[C@@H](O)CN3CCC3)c2)n1 : 1 to 10 µM
